Tested on: A498 complex spheroids with HUVEC/MSC, growth
Assay: Anticancer human tumor A498 cell line growth inhibition [AhR];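 note: luminescence signal used as a surrogate for viable cells; seven day exposure starting three days after spheroid seeding; luminescence viability scaled so 100% equals DMSO vehicle wells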
Settings: second compound 0.316 µM; first compound 0.0316 µM; stronger effect = lower value
Field: class. Source value: viability, T/C. Ranges: c1 (below 70%), c2 (70% to below 90%), c3 (90% or more)

Molecule: CC(C)c1c(-c2ccccc2)nc2c(C#N)c[nH]n2c1=O + Cc1cncc(-c2nc(NCCc3c[nH]c4ccccc34)c3ncn(C(C)C)c3n2)c1
Assigned Label: c3
//
Molecule: CC1(C)CCC(CN2CCN(c3ccc(C(=O)NS(=O)(=O)c4ccc(NCC5CCOCC5)c([N+](=O)[O-])c4)c(Oc4cnc5[nH]ccc5c4)c3)CC2)=C(c2ccc(Cl)cc2)C1 + Cc1ccccc1N=Nc1ccc(NC(=O)c2ccnn2C)c(C)c1
Assigned Label: c3
//
Molecule: COc1cccc2c1C(=O)c1c(O)c3c(c(O)c1C2=O)CC(O)(C(=O)CO)CC3OC1CC(N)C(O)C(C)O1 (stereo unspecified) + Cc1cncc(-c2nc(NCCc3c[nH]c4ccccc34)c3ncn(C(C)C)c3n2)c1
Assigned Label: c1
//
Molecule: COc1cc(C2c3cc4c(cc3C(OC3OC5COC(C)OC5C(O)C3O)C3COC(=O)C23)OCO4)cc(OC)c1O (stereo unspecified) + Cc1ccccc1N=Nc1ccc(NC(=O)c2ccnn2C)c(C)c1
Assigned Label: c2
//
Molecule: CC[C@@]1(O)C(=O)OCc2c1cc1n(c2=O)Cc2cc3c(CN(C)C)c(O)ccc3nc2-1 + Cc1ccccc1N=Nc1ccc(NC(=O)c2ccnn2C)c(C)c1
Assigned Label: c2
//
Molecule: COc1ccc([C@@H](O)c2cc(-c3ncnc4cc(N5CCOCC5)ccc34)c(F)cc2Cl)nn1 + CC(CO)NC(=O)c1cc(-c2ccc(Cl)cc2)nn(-c2cnn(C)c2)c1=O
Assigned Label: c2
//
Molecule: COc1cc(C2c3cc4c(cc3C(OC3OC5COC(C)OC5C(O)C3O)C3COC(=O)C23)OCO4)cc(OC)c1O (stereo unspecified) + CC(CO)NC(=O)c1cc(-c2ccc(Cl)cc2)nn(-c2cnn(C)c2)c1=O
Assigned Label: c2
//
Molecule: COc1cccc2c1C(=O)c1c(O)c3c(c(O)c1C2=O)CC(O)(C(=O)CO)CC3OC1CC(N)C(O)C(C)O1 (stereo unspecified) + CC(CO)NC(=O)c1cc(-c2ccc(Cl)cc2)nn(-c2cnn(C)c2)c1=O
Assigned Label: c1

###

viability, T/C values, listed per item
Tested on: A498 complex spheroids with HUVEC/MSC, growth
Test: Anticancer human tumor A498 cell line growth inhibition [AhR];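 note: luminescence signal used as a surrogate for viable cells; seven day exposure starting three days after spheroid seeding; luminescence viability scaled so 100% equals DMSO vehicle wells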
Conditions: second compound 3.16 µM; first compound 1 µM; stronger effect = lower value
Measured Attribute: viability, T/C (%)

Compound: CC1COCCN1c1cc(-c2ccnn2C)c2ccnc(-c3ccn[nH]3)c2n1 (stereo unspecified) + Cc1cncc(-c2nc(NCCc3c[nH]c4ccccc34)c3ncn(C(C)C)c3n2)c1
Recorded Result: 19.5
//
Compound: O=C(C=Cc1cccc(S(=O)(=O)Nc2ccccc2)c1)NO + Cc1cncc(-c2nc(NCCc3c[nH]c4ccccc34)c3ncn(C(C)C)c3n2)c1
Recorded Result: 42.5
//
Compound: NS(=O)(=O)OCC1CC(n2ccc3c(NC4CCc5ccccc54)ncnc32)CC1O (stereo unspecified) + CC(CO)NC(=O)c1cc(-c2ccc(Cl)cc2)nn(-c2cnn(C)c2)c1=O
Recorded Result: 29.3
//
Compound: Nc1ccccc1NC(=O)c1ccc(CNC(=O)OCc2cccnc2)cc1 + Cc1ccccc1N=Nc1ccc(NC(=O)c2ccnn2C)c(C)c1
Recorded Result: 54
//
Compound: COc1cc(Nc2ncc3c(n2)-c2ccc(Cl)cc2C(c2c(F)cccc2OC)=NC3)ccc1C(=O)O + Cc1cncc(-c2nc(NCCc3c[nH]c4ccccc34)c3ncn(C(C)C)c3n2)c1
Recorded Result: 42.3
//
Compound: COc1cc(C2c3cc4c(cc3C(OC3OC5COC(C)OC5C(O)C3O)C3COC(=O)C23)OCO4)cc(OC)c1O (stereo unspecified) + Cc1cncc(-c2nc(NCCc3c[nH]c4ccccc34)c3ncn(C(C)C)c3n2)c1
Recorded Result: 56.8
